# protocol: Clinical study #5: PK of edaravone oral formulation (formula #3) in ALS patients, oral, fasted
# Format: in vivo, human
# particulars: human, plasma, po, 105 mg, 105 mg oral, fasted, ALS patients (n = 9), mean, before weight correction; read-out: Cmax
observable: Cmax
Entry format: amount then unit.

So what does the record say about Cmax for CC1=NN(c2ccccc2)C(=O)C1 [Edaravone, 3-methyl-1-phenyl-2-pyrazolin-5-one] ?
1900 ng/mL

###

# protocol: Clinical study #3: PK of edaravone oral formulation (formula #3), fasted vs after high-fat, standard or light meal; analysis of variance
# Type: in vivo, human
# particulars: 105 mg oral, 2 hours after light meal
observable: Cmax Min (ng/mL)
API: value field is a number in ng/mL; no unit string.

Recorded Cmax Min of CC1=NN(c2ccccc2)C(=O)C1 , please.
388

These data points were gathered from patent US12310946B2.
